All figures here come from PubChem BioAssay (NCI).

# System: SK-OV-3 ovarian
# assay.name: NCI tumour cell line growth inhibition, 48 h
Catalogue of TGI values

Known results for compounds:
- compound: "Cn1ccnc1S/C(=C\\C=C(C#N)C#N)c1ccc(Cl)cc1"
  measured.result: "38.8 µM"
- compound: "COc1ccc2cc(C(=O)/C=C/c3cc(OC)c(OC)c(OC)c3)ccc2c1"
  measured.result: "46.4 µM"
- compound: "O=C(NCCN(CCNC(=O)c1cccc(=O)n1O)CCN(CCNC(=O)c1cccc(=O)n1O)CCNC(=O)c1cccc(=O)n1O)c1cccc(=O)n1O"
  measured.result: "> 100 µM"
- compound: "CCOC/N=C(/N)NC#N"
  measured.result: "> 100 µM"
- compound: "CC(=O)OC[C@H]1O[C@@H](O[C@H]2[C@H](OC(C)=O)C=CO[C@@H]2COC(C)=O)C(OC(C)=O)[C@H]2OC(C)(C)O[C@H]21 (stereo not given in full)"
  measured.result: "> 100 µM"

Kindly review the next compound as well.
In plain terms, CCN1CC(C)Cn2c(=O)[nH]c3cc(Br)cc1c32 (stereo not given) has a documented TGI of > 100 µM
